Provide the reported ΔTm of each item.
- System Name: Transcription intermediary factor 1-alpha (Homo sapiens)
- Assay Procedure: Binding affinity to TIF1 (unknown origin) assessed as change in melting temperature at 200 uM by SYPRO orange dye based fluorescence assay
Numbers only, in °C.

Some molecules with recorded ΔTm:
molecule=CCN1C(=O)[C@@H](CC2CC2)Oc2cc(-c3c(C)noc3C)ccc21 result_value=0.8
molecule=Cc1noc(C)c1-c1ccc2c(c1)O[C@H](CC1CC1)C(=O)N2CCN1CCOCC1 result_value=-0.3
molecule="Cc1noc(C)c1-c1ccc2c(c1)OC(c1ccccc1F)C(=O)N2 (configuration not stated)" result_value=-0.6
molecule=Cc1sc2c(c1C)C(c1ccc(Cl)cc1)=N[C@@H](CC(=O)OC(C)(C)C)c1nnc(C)n1-2 result_value=0

Dear colleague, could you please provide ΔTm for the molecules listed below?
1. Cc1noc(C)c1-c1ccc2c(c1)O[C@H](CC(C)C)C(=O)N2
2. Cc1noc(C)c1-c1ccc2c(c1)O[C@H](CC1CC1)C(=O)N2
3. Cc1noc(C)c1-c1ccc2c(c1)OC(c1ccccc1)C(=O)N2 (configuration not stated)

1: -0.9; 2: -0.3; 3: -0.9

---

- System Name: UniProtKB Q92793
- Sequence (Q92793 whole entry): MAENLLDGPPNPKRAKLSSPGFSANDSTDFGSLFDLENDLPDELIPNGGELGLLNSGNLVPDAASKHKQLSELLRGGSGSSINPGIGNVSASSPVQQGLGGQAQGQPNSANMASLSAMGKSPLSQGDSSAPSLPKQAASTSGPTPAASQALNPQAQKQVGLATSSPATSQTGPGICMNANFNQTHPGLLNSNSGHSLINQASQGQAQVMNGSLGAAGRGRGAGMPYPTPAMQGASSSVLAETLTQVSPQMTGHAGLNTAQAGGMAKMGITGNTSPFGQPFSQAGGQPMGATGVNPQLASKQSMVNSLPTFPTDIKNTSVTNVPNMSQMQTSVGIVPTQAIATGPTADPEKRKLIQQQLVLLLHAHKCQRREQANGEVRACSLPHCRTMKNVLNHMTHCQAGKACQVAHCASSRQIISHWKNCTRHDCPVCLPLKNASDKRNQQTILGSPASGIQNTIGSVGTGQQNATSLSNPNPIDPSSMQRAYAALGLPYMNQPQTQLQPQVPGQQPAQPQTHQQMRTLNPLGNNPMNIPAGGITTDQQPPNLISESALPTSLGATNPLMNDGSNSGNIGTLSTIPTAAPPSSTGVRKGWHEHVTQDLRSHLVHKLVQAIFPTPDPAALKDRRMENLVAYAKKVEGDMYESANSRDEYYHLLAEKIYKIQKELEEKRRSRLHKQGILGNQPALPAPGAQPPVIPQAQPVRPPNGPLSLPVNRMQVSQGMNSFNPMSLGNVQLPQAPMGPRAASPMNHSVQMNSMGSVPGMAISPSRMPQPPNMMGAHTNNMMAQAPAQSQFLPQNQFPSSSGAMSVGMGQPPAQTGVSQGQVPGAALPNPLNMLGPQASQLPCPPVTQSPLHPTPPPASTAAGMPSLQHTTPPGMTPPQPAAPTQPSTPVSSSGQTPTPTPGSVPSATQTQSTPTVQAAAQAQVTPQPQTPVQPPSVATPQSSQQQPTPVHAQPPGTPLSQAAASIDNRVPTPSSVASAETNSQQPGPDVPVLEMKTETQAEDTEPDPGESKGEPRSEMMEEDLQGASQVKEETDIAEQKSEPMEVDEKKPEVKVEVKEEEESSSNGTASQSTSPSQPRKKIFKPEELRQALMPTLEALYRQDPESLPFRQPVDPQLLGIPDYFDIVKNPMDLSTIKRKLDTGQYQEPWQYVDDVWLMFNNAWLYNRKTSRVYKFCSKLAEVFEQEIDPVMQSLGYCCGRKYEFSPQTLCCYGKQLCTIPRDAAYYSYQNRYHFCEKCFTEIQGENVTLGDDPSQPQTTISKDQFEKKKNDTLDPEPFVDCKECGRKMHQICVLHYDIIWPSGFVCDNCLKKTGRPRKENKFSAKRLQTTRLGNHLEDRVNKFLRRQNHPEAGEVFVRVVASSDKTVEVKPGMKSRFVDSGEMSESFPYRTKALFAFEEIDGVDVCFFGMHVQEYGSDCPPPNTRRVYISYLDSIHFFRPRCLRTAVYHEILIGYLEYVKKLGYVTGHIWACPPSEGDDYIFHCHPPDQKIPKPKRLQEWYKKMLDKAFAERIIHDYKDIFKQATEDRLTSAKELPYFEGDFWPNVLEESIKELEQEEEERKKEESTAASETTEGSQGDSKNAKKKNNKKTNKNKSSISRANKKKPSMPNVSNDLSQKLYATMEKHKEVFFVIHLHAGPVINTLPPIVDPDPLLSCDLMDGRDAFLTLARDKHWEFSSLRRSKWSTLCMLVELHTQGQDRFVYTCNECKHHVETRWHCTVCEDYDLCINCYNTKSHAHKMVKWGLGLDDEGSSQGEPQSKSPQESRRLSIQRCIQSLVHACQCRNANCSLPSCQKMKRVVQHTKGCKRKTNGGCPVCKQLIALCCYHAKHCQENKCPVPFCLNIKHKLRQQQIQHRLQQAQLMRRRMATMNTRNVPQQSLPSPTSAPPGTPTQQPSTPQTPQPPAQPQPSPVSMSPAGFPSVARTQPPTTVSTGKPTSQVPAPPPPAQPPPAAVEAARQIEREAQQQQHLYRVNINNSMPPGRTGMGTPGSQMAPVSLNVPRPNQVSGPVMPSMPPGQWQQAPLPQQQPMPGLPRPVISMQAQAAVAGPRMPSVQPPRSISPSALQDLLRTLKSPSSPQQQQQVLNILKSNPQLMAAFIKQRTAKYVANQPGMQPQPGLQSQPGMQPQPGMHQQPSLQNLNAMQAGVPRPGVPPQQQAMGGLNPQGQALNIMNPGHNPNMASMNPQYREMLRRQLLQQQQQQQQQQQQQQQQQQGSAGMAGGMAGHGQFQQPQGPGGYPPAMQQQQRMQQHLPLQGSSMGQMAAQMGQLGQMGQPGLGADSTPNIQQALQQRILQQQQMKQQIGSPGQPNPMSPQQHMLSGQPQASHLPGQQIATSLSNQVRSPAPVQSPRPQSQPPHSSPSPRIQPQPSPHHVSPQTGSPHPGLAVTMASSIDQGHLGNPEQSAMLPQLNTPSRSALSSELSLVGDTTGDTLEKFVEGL
Give pIC50 for every item shown.
Give bare numbers, as −log10 of the molar value.

Some entries whose results are on file:
molecule="Cc1noc(C)c1-c1ccc2c(c1)OC(c1ccccc1F)C(=O)N2 (stereo not drawn)" metric=pIC50 result_value=5.61
molecule=Cc1noc(C)c1-c1ccc2c(c1)O[C@H](CC1CC1)C(=O)N2CCN1CCOCC1 metric=pIC50 result_value=5.81

Quick one: pIC50 of Cc1noc(C)c1-c1ccc2c(c1)O[C@H](CC1CC1)C(=O)N2 ? 5.61

---

The following are reported ΔTm results, target or system Bromodomain-containing protein 4 (Homo sapiens, UniProt O60885).
Give bare numbers, in °C.

Known results for molecules:
molecule="CSCCC1Oc2cc(-c3c(C)noc3C)ccc2NC1=O (stereo unspecified)" unit_annotation=°C result_value=6.9
molecule="Cc1noc(C)c1-c1ccc2c(c1)OC(CC(C)C)C(=O)N2 (stereo unspecified)" unit_annotation=°C result_value=9.4
molecule=CCN1C(=O)[C@@H](CC2CC2)Oc2cc(-c3c(C)noc3C)ccc21 unit_annotation=°C result_value=9.6

Consider the following items and state reported ΔTm for each.
1. Cc1noc(C)c1-c1ccc2c(c1)OC(c1ccccc1Cl)C(=O)N2 (stereo unspecified)
2. Cc1noc(C)c1-c1ccc2c(c1)OC(CC1CC1)C(=O)N2 (stereo unspecified)

1. 5.1
2. 8.7

What value of ΔTm has been reported for the following molecule? Cc1noc(C)c1-c1ccc2c(c1)O[C@H](Cc1ccccc1)C(=O)N2 3.2

---

Measured ΔTm on Bromodomain-containing protein 4 (Homo sapiens) follows.
Answers are plain numbers, in °C.

Sample records with ΔTm:
compound="Cc1noc(C)c1-c1ccc2c(c1)OC(c1ccccc1F)C(=O)N2 (configuration not stated)" system_name="Bromodomain-containing protein 4 (Homo sapiens)" metric=ΔTm unit_annotation=°C result_value=8.4
compound="Cc1noc(C)c1-c1ccc2c(c1)OC(Cc1ccc(Cl)cc1)C(=O)N2 (configuration not stated)" system_name="Bromodomain-containing protein 4 (Homo sapiens)" metric=ΔTm unit_annotation=°C result_value=2.1
compound="Cc1noc(C)c1-c1ccc2c(c1)OC(c1ccc(Cl)cc1)C(=O)N2 (configuration not stated)" system_name="Bromodomain-containing protein 4 (Homo sapiens)" metric=ΔTm unit_annotation=°C result_value=5.4
compound="Cc1noc(C)c1-c1ccc2c(c1)OC(c1ccccc1)C(=O)N2 (configuration not stated)" system_name="Bromodomain-containing protein 4 (Homo sapiens)" metric=ΔTm unit_annotation=°C result_value=9.6
compound="Cc1noc(C)c1-c1ccc2c(c1)OC(CC1CCCCC1)C(=O)N2 (configuration not stated)" system_name="Bromodomain-containing protein 4 (Homo sapiens)" metric=ΔTm unit_annotation=°C result_value=6.9
compound=Cc1noc(C)c1-c1ccc2c(c1)O[C@H](CC1CC1)C(=O)N2CCN1CCOCC1 system_name="Bromodomain-containing protein 4 (Homo sapiens)" metric=ΔTm unit_annotation=°C result_value=8.1

For every record below, what is its ΔTm?
1. Cc1noc(C)c1-c1ccc2c(c1)OC(CC1CCCC1)C(=O)N2 (configuration not stated)
2. Cc1noc(C)c1-c1ccc2c(c1)OC(c1cccc(C(F)(F)F)c1)C(=O)N2 (configuration not stated)
3. Cc1noc(C)c1-c1ccc2c(c1)OC(CC1CCC1)C(=O)N2 (configuration not stated)

1: 7.8; 2: 3.3; 3: 8.1

I'm hoping you can list ΔTm for every compound here, please.
1. Cc1noc(C)c1-c1ccc2c(c1)O[C@H](CC1CC1)C(=O)N2C
2. Cc1noc(C)c1-c1ccc2c(c1)O[C@H](CC1CC1)C(=O)N2CCN(C)C
3. CCCCC1Oc2cc(-c3c(C)noc3C)ccc2NC1=O (configuration not stated)
4. Cc1noc(C)c1-c1ccc2c(c1)O[C@H](CC1CC1)C(=O)N2CC(=O)O

7.7
8.4
7.8
6.9

Would you mind giving ΔTm for every compound in the list below?
1. Cc1noc(C)c1-c1ccc2c(c1)O[C@@H](CC1CC1)C(=O)N2
2. Cc1noc(C)c1-c1ccc2c(c1)OC(c1ccc(Cl)c(Cl)c1)C(=O)N2 (configuration not stated)
3. CCCC1Oc2cc(-c3c(C)noc3C)ccc2NC1=O (configuration not stated)
4. Cc1noc(C)c1-c1ccc2c(c1)OC(Cc1ccccc1)C(=O)N2 (configuration not stated)
5. Cc1noc(C)c1-c1ccc2c(c1)OC(C(C)(C)C)C(=O)N2 (configuration not stated)
6. Cc1noc(C)c1-c1ccc2c(c1)OC(c1ccccc1C(F)(F)F)C(=O)N2 (configuration not stated)
7. Cc1noc(C)c1-c1ccc2c(c1)OC(c1cccc(Cl)c1)C(=O)N2 (configuration not stated)
8. Cc1noc(C)c1-c1ccc2c(c1)OC(c1cc(Cl)cc(Cl)c1)C(=O)N2 (configuration not stated)

[3.9, 5.7, 8.1, 3, 7.9, 5.4, 4.8, 6.3]

Name the recorded ΔTm for Cc1noc(C)c1-c1ccc2c(c1)OC(c1cccc(F)c1)C(=O)N2 (configuration not stated) . 7.5
